# SYSTEM: meprin α (Homo sapiens)
# Sequence (Q16819 66-593 limits assumed): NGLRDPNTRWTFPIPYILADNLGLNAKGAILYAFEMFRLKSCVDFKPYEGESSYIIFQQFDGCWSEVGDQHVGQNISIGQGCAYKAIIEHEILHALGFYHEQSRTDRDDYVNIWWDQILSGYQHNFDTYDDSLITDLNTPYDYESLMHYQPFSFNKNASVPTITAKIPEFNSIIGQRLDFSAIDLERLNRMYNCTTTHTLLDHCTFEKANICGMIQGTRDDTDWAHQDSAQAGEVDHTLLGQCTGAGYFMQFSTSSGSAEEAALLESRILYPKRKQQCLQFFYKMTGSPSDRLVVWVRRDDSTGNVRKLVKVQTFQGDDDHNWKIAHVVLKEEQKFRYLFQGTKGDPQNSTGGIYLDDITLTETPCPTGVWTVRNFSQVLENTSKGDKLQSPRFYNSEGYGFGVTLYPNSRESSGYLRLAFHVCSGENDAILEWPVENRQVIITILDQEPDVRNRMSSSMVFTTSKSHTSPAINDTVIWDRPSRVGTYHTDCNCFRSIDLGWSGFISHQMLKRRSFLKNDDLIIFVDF
# TEST: Meprin α assay, fluorogenic substrate (Mca)-YVADAPK-(K-ε-Dnp), 384 and 1536 well plate formats
# Format: biochemical
# SETUP_CONDITIONS: control compound in primary HTS campaign, n = 11 plates; read-out: IC50
OUTCOME_MEASURE: IC50 (nM)

[[record]]
compound = "CCCCC[C@H](CC(=O)NO)C(=O)N[C@H](C(=O)N1CCC[C@H]1CO)C(C)C [Actinonin, actinonin]"
outcome_measure = "IC50"
value_reported = 2.9

